Sourced from PubChem BioAssay (NCI)

System: T-47D breast
experiment: NCI tumour cell line growth inhibition, 48 h; in the data active = GI50 below about 0.43 µM; inactive = the rest
Parameter call: string, one of true (1) = active, false (0) = inactive

[
  {
    "molecule": "CC(=O)[O][Sn]([CH2]c1ccccc1)([CH2]c1ccccc1)[CH2]c1ccccc1",
    "system-under-test": "T-47D breast",
    "category": "false (0)"
  },
  {
    "molecule": "Cc1[nH]c(=O)nc(Nc2ccc(Cl)cc2)c1C(=O)N1CCN(CCO)CC1",
    "system-under-test": "T-47D breast",
    "category": "false (0)"
  },
  {
    "molecule": "CN(C)c1ccc(C(=NO)c2ccc(N(C)C)cc2)cc1",
    "system-under-test": "T-47D breast",
    "category": "false (0)"
  }
]

Hi, do you know how COc1ccc(C(=O)/C=C/c2cccc(Nc3ccnc4cc(Cl)ccc34)c2)cc1 came out in this test?
false (0)
